target: Ribosomal protein S6 kinase (Homo sapiens) (UniProt P51812+Q9UBS0+O75676+Q15349+O75582+P23443+Q9UK32+Q15418); assay: Inhibition of RPS6 kinase in human HeLa cells assessed as p-RPS6 Ser235/236 phosphorylation level at 5 uM incubated for 6 hrs by SDS-PAGE based chemiluminescence assay; type: cell-based; parameters: scale not given: the % may be the effect or the level left
assay_metric: Activity (%)

[
  {
    "chemical_string": "CCN(CC)CCNC(=O)c1c(C)[nH]c(/C=C2\\C(=O)Nc3c2cccc3-c2cncc(C)c2)c1C",
    "Activity, %": 47
  }
]

A. Cc1[nH]c(/C=C2\C(=O)Nc3ccc(-c4cnn(-c5ccccn5)c4)cc32)c(C)c1C(=O)NCCN1CCCC1
B. CCN(CC)CCNC(=O)c1c(C)[nH]c(/C=C2\C(=O)Nc3ccc(-c4nc(-c5ccccc5)cs4)cc32)c1C
C. Cc1nc(-c2ccccc2)oc1-c1ccc2c(c1)NC(=O)/C2=C\c1[nH]c(C)c(C(=O)N2CCN(C)CC2)c1C
D. CCN(CC)CCNC(=O)c1c(C)[nH]c(/C=C2\C(=O)Nc3ccc(-c4ccc(-c5cccs5)s4)cc32)c1C
Hello, I need these entries ordered by Activity, highest reading first. Thanks! Ranked list of labels, please, in the requested order.
A, B, D, C

----------
Here the recorded IC50 is given for each entry.
system: A549; test: Cytotoxic activity against human A549 bulk cells incubated for 72 hrs by Cell-titer-Glo luminescence assay; assay type: functional, cell-based; conditions: A549, 72 h
# number only, unit µM dropped from output

// worked examples, IC50 included
[
  {
    "chemical_string": "Cc1cc(C)c(/C=C2\\C(=O)Nc3cccc(-c4ccc5cc[nH]c5c4)c32)[nH]1",
    "measured": 16.6
  },
  {
    "chemical_string": "Cc1cc(C)c(/C=C2\\C(=O)Nc3ccc(-c4ccc(O)cc4C)cc32)[nH]1",
    "measured": 12.5
  }
]

# input for lookup
Need IC50, item O=C1Nc2ccc(-c3csc(-c4ccncc4)n3)cc2/C1=C/c1cnc[nH]1
9.19

----------
target: Ribosomal protein S6 kinase (Homo sapiens) (UniProt P51812+Q9UBS0+O75676+Q15349+O75582+P23443+Q9UK32+Q15418); test: Inhibition of RPS6 kinase in human HeLa cells assessed as p-RPS6 Ser235/236 phosphorylation level at 5 uM incubated for 6 hrs by SDS-PAGE based chemiluminescence assay; assay type: cell-based; parameters: scale not given: the % may be the effect or the level left
assay_metric: Activity (%)

[
  {
    "chemical_string": "CCN(CC)CCNC(=O)c1c(C)[nH]c(/C=C2\\C(=O)Nc3cccc(-c4ccc(-c5ccccc5)cc4)c32)c1C",
    "measured": 2
  },
  {
    "chemical_string": "Cc1[nH]c(/C=C2\\C(=O)Nc3cccc(-c4ccc(-c5ccccc5)cc4)c32)c(C)c1C(=O)N1CCN(C)CC1",
    "measured": 2
  },
  {
    "chemical_string": "Cc1[nH]c(/C=C2\\C(=O)Nc3c2cccc3-c2csc(-c3ccccc3)n2)c(C)c1C(=O)N1CCN(C)CC1",
    "measured": 2
  }
]

----------
tested on: A549; test: Cytotoxic activity against human A549 bulk cells incubated for 72 hrs by Cell-titer-Glo luminescence assay; type: functional, cell-based; settings: A549, 72 h
assay_metric: pIC50
Worth noting: pIC50 values are minus log10 of concentrations stated in mol/L.

// worked examples, pIC50 included
[
  {
    "chemical_string": "CCN(CC)CCNC(=O)c1c(C)[nH]c(/C=C2\\C(=O)Nc3ccc(-c4cnc5ccccc5n4)cc32)c1C",
    "tested_system": "A549",
    "pIC50": 5.09
  },
  {
    "chemical_string": "CCN(CC)CCNC(=O)c1c(C)[nH]c(/C=C2\\C(=O)Nc3ccc(-c4nc5ccccc5s4)cc32)c1C",
    "tested_system": "A549",
    "pIC50": 5.43
  },
  {
    "chemical_string": "Cc1cc(C)c(/C=C2\\C(=O)Nc3ccc(-c4ccc5cn[nH]c(=O)c5c4)cc32)[nH]1",
    "tested_system": "A549",
    "pIC50": 5.85
  },
  {
    "chemical_string": "CCN(CC)CCNC(=O)c1c(C)[nH]c(/C=C2\\C(=O)Nc3ccc(-c4cscc4C)cc32)c1C",
    "tested_system": "A549",
    "pIC50": 5.70
  }
]

Return pIC50 measured with A549 given this molecule: CCN(CC)CCNC(=O)c1c(C)[nH]c(/C=C2\C(=O)Nc3cc(-c4csc(-n5cccn5)n4)ccc32)c1C
5.24

Next record, please: Cc1cc(C)c(/C=C2\C(=O)Nc3ccc(-c4cnc5cccnn45)cc32)[nH]1
4.90

Next record, please: CCN(CC)CCNC(=O)c1c(C)[nH]c(/C=C2\C(=O)Nc3ccc(-c4cnc5ccccc5c4)cc32)c1C
5.41

Next record, please: Cc1[nH]c(/C=C2\C(=O)Nc3ccc(-c4cnn(-c5ccccc5)c4)cc32)c(C)c1C(=O)N1CCN(C)CC1
5.16

Next record, please: CCN(CC)CCNC(=O)c1c(C)[nH]c(/C=C2\C(=O)Nc3cccc(-c4ccc(-c5ccccc5)cc4)c32)c1C
5.29

Next record, please: CCN(CC)CCNC(=O)c1c(C)[nH]c(/C=C2\C(=O)Nc3ccc(-c4ccc(C)cn4)cc32)c1C
5.19

----------
test system: A549; experiment: Cytotoxic activity against human A549 bulk cells incubated for 72 hrs by Cell-titer-Glo luminescence assay; type: functional, cell-based; details: A549, 72 h
assay_metric: pIC50
Worth noting: pIC50 values are minus log10 of concentrations stated in mol/L.

// worked examples, pIC50 included
[
  {
    "chemical_string": "Cc1cc(C)c(/C=C2\\C(=O)Nc3cc(-c4cnc5ccccc5n4)ccc32)[nH]1",
    "tested_system": "A549",
    "pIC50": 4.74
  },
  {
    "chemical_string": "CCN(CC)CCNC(=O)c1c(C)[nH]c(/C=C2\\C(=O)Nc3ccc(-c4n[nH]c5c(N)cccc45)cc32)c1C",
    "tested_system": "A549",
    "pIC50": 4.93
  },
  {
    "chemical_string": "CCN(CC)CCNC(=O)c1c(C)[nH]c(/C=C2\\C(=O)Nc3ccc(-c4cnn(-c5ccccc5)c4C)cc32)c1C",
    "tested_system": "A549",
    "pIC50": 4.53
  }
]

Need pIC50, item Cc1cc(C)c(/C=C2\C(=O)Nc3ccc(-c4cnc5ccccc5n4)cc32)[nH]1
5.10

Next record, please: CSc1cnc(-c2ccc3c(c2)/C(=C/c2[nH]c(C)cc2C)C(=O)N3)cn1
4.45

Next record, please: Cc1cncc(-c2cccc3c2NC(=O)/C3=C\c2[nH]c(C)cc2C)c1
4.67
